Quick reference: TGI of the listed items.
System: IGROV1 ovarian
Assay: NCI tumour cell line growth inhibition, 48 h

- molecule: "COC(=O)[C@H](Cc1ccccc1)NC(=O)c1csc([C@@H](C[C@H](C(C)C)N(C)C(=O)[C@@H](NC(=O)[C@H]2CCCCN2C)C2CC2)OC(C)=O)n1"
  TGI: "> 25 µM"
- molecule: "CCCCCCCCCCCCC(=O)NCC(=O)NC(Cc1ccccc1)C(=O)Oc1ccc([N+](=O)[O-])cc1 (stereo unspecified)"
  TGI: "> 100 µM"
- molecule: "CCOC(=O)CCC1(C(=O)OC)CCCC1=O (stereo unspecified)"
  TGI: "> 100 µM"
- molecule: "CC1CN=C(c2cccc(OCc3ccc(COc4cccc(C5=NCC(C)N5)c4)cc3)c2)N1 (stereo unspecified)"
  TGI: "> 100 µM"
- molecule: "CC1=C(C#N)C(N)=C2C(C)=C(C#N)C(N)=C12"
  TGI: "> 100 µM"

Continue with the next molecule.
Could you tell me which TGI is on file for `Cn1c(=O)c2c3oc(=O)cc(O)c3c(=O)n3c4ccccc4n(c1=O)c23` ?
> 100 µM
